targetSystem: T1, Human IL-1Rrp2/IL-1R6 protein, His Tag (ACROBiosystems, IL2-H52H6) (human, UniProt Q9HB29 20-335)
T1 construct: Bought protein; the soluble protein is likely only the extracellular part; also called hIL-36R; human IL36R antigen; not shown: His tag
T1 sequence: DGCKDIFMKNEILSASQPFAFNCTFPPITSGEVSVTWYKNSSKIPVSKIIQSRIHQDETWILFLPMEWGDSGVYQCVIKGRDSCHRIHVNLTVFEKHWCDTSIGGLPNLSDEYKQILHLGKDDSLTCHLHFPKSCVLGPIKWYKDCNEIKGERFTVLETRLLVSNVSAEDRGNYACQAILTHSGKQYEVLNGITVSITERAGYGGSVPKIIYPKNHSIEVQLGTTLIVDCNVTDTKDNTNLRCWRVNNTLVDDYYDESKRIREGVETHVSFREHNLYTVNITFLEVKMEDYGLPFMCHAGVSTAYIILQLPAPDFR
assayOverview: BLI (ForteBio Octet), antibody on ProA sensor, 1:1 model
Please respond with reported kon for every item in the list.
One number for each entry, in M⁻¹ s⁻¹.

Solved entries:
>  <binder>
hz84C4-1.3 (antibody, human IgG4 S228P, kappa, V domains shown, Humanized, human IgG4 / kappa) VH: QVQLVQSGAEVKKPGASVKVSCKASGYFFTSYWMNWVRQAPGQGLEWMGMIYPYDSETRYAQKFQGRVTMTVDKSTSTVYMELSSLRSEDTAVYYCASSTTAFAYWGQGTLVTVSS VL: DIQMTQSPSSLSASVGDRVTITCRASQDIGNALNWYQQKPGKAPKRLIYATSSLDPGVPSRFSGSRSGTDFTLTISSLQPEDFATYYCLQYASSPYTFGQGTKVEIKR

>  <kon / M⁻¹ s⁻¹>
61900

$$$$
>  <binder>
hz84C4-2.1 (antibody, human IgG4 S228P, kappa, V domains shown, Humanized, human IgG4 / kappa) VH: QVQLVQSGAEVKKPGASVKVSCKASGYFFTSYWMNWVRQAPGQGLEWMGMIHPYDSETRYAQKFQGRVTMTVDKSTSTVYMELSSLRSEDTAVYYCASSTTAFAYWGQGTLVTVSS VL: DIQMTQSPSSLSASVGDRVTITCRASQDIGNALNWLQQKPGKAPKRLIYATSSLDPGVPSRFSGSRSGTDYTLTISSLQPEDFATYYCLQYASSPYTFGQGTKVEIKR

>  <kon / M⁻¹ s⁻¹>
94500

$$$$

Kindly consider the entry below.
// lookup kon for hz84C4-1.4 (antibody, human IgG4 S228P, kappa, V domains shown, Humanized, human IgG4 / kappa) VH: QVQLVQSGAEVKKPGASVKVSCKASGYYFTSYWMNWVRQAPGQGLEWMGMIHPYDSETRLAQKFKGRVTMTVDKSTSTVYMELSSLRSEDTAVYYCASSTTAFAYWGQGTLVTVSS VL: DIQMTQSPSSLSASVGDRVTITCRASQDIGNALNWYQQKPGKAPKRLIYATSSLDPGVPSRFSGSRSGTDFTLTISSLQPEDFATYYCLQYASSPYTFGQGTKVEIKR
119000
